Tested on: Plasmodium falciparum
experiment: Antiplasmodial activity against Plasmodium falciparum 3D7
Assay type: functional, organism-based
pIC50: −log10 of the molar value.
parameter: pIC50

| compound | test system | parameter | measured number |
| --- | --- | --- | --- |
| CC[C@H](C)[C@@H](C(=O)O[C@@H](CC(C)C)C(=O)N[C@@H](CC(C)C)C(=O)N[C@@H](C)/C=C/C(=O)N1C(=O)C=C(OC)[C@@H]1C)N(C)C [GALLINAMIDE A] | Plasmodium falciparum | pIC50 | 7.30 |

----------
test system: Falcipain 2 (Plasmodium falciparum)
experiment: Inhibition of FP2' in Plasmodium falciparum trophozoite stage after 1 hr by SDS-PAGE analysis

| compound | IC50, nM |
| --- | --- |
| CC[C@H](C)[C@@H](C(=O)O[C@@H](CC(C)C)C(=O)N[C@@H](CC(C)C)C(=O)N[C@@H](C)/C=C/C(=O)N1C(=O)C=C(OC)[C@@H]1C)N(C)C [GALLINAMIDE A] | 8.5 |

----------
test system: Falcipain 2 (Plasmodium falciparum, UniProt Q9N6S8)
experiment: Inhibition of FP2 in Plasmodium falciparum trophozoite stage after 1 hr by SDS-PAGE analysis
pIC50: −log10 of the molar value.

| compound | test system | pIC50 |
| --- | --- | --- |
| CC[C@H](C)[C@@H](C(=O)O[C@@H](CC(C)C)C(=O)N[C@@H](CC(C)C)C(=O)N[C@@H](C)/C=C/C(=O)N1C(=O)C=C(OC)[C@@H]1C)N(C)C [GALLINAMIDE A] | Falcipain 2 (Plasmodium falciparum, UniProt Q9N6S8) | 8.07 |

----------
Entries and their pIC50 values follow.
experiment: Cytotoxicity against […] cells assessed as cell viability by AlamarBlue assay
Format: cell-based
experimental setup: Homo sapiens
pIC50: −log10 of the molar value.
parameter: pIC50

| given smiles | value relation sign | measured number |
| --- | --- | --- |
| COC1=CC(=O)N(C(=O)/C=C/[C@H](C)NC(=O)[C@H](CC(C)C)NC(=O)[C@H](CC(C)C)NC(=O)[C@H](C(C)C)N(C)C)[C@H]1Cc1ccc(O)cc1 | = | 4.72 |
| COC1=CC(=O)N(C(=O)/C=C/[C@H](C)NC(=O)[C@H](CC(C)C)NC(=O)[C@H](CC(C)C)NC(=O)[C@H](C(C)C)N(C)C)[C@H]1C(C)C | = | 5.02 |
| CC(C)C[C@H](NC(=O)[C@H](CC(C)C)NC(=O)[C@H](C(C)C)N(C)C)C(=O)N[C@@H](C)/C=C/C(=O)N[C@@H](C)C(=O)NCc1ccccc1 | < | 4.30 |
| CC(C)C[C@H](NC(=O)[C@H](CC(C)C)NC(=O)[C@@H](C(C)C)N(C)C)C(=O)N[C@@H](C)/C=C/C(=O)N[C@@H](C)C(=O)NCc1ccccc1 | < | 4.30 |
| COC1=CC(=O)N(C(=O)/C=C/[C@H](C)NC(=O)[C@H](CC(C)C)NC(=O)[C@H](CC(C)C)NC(=O)[C@H](C(C)C)N(C)C)[C@H]1Cc1c[nH]c2ccccc12 | = | 5.07 |
| CC[C@H](C)[C@@H](C(=O)N[C@@H](CC(C)C)C(=O)N[C@@H](CC(C)C)C(=O)N[C@@H](C)/C=C/C(=O)N[C@@H](C)C(=O)NCc1ccccc1)N(C)C | < | 4.30 |
| COC1=CC(=O)N(C(=O)/C=C/[C@H](C)NC(=O)[C@H](CC(C)C)NC(=O)[C@H](CC(C)C)NC(=O)[C@H](C(C)C)N(C)C)C1 | = | 4.79 |
| COC1=CC(=O)N(C(=O)/C=C/[C@H](C)NC(=O)[C@H](CC(C)C)NC(=O)[C@H](CC(C)C)NC(=O)[C@H](C(C)C)N(C)C)[C@H]1C | = | 4.85 |

----------
test system: UniProt:Q9N6S8
experiment: Inhibition of Plasmodium falciparum FP2 using Z-Phe-Arg-AMC as substrate incubated for 30 mins prior to substrate addition measured after 30 mins by fluorescence assay
pIC50: −log10 of the molar value. *1 amine or outer side, *2 acyl side, *3 side chain or, on linkers, in order; H or OH if unused. Where a SMILES comes first, the peptide text is derived from it. [ ]: non-standard residue; d: D form. The star is where a group is joined. Pentenoic(2E,4S-NH2) = C[C@@H](/C=C/C(=O)[*:2])N[*:1]; X1 = CC[C@H](C)[C@@H](C(=O)*)N(C)C; NHBn = c1ccc(CN*)cc1

| compound | value relation sign | pIC50 |
| --- | --- | --- |
| CC[C@H](C)[C@@H](C(=O)N[C@@H](CC(C)C)C(=O)N[C@@H](CC(C)C)C(=O)N[C@@H](C)/C=C/C(=O)N[C@@H](C)C(=O)NCc1ccccc1)N(C)C | = | 4.98 |
| CC(C)C[C@H](NC(=O)[C@H](CC(C)C)NC(=O)[C@H](C(C)C)N(C)C)C(=O)N[C@@H](C)/C=C/C(=O)N[C@@H](C)C(=O)Nc1nccs1 | = | 5.60 |
| CC[C@H](C)[C@@H](C(=O)N[C@@H](CC(C)C)C(=O)N[C@@H](CC(C)C)C(=O)N[C@H](C(=O)N[C@@H](C)/C=C/C(=O)N[C@@H](C)C(=O)NCc1ccccc1)C(C)C)N(C)C (X1-LLV[Pentenoic(2E,4S-NH2)]A-NHBn) | < | 4.30 |
| CC(C)C[C@H](NC(=O)[C@H](CC(C)C)NC(=O)[C@H](C(C)C)N(C)C)C(=O)N[C@@H](C)/C=C/C(=O)N1CC(OCc2ccccc2)=CC1=O | = | 8.02 |
| COC1=CC(=O)N(C(=O)/C=C/[C@H](C)NC(=O)[C@H](CC(C)C)NC(=O)[C@H](CC(C)C)NC(=O)[C@H](C(C)C)N(C)C)[C@H]1C(C)C | = | 8.02 |
| COC1=CC(=O)N(C(=O)/C=C/[C@H](C)NC(=O)[C@H](CC(C)C)NC(=O)[C@H](CC(C)C)NC(=O)[C@H](C(C)C)N(C)C)[C@H]1C | = | 8.17 |
| CO[C@H]1CC(=O)N(C(=O)CC[C@H](C)NC(=O)[C@H](CC(C)C)NC(=O)[C@H](CC(C)C)NC(=O)[C@H](C(C)C)N(C)C)[C@H]1C | < | 4.30 |
| CC[C@H](C)[C@@H](C(=O)N[C@@H](CC(C)C)C(=O)N[C@@H](CC(C)C)C(=O)N[C@@H](C)/C=C/C(=O)N[C@@H](C)C(=O)N1C[C@@H](O)C[C@H]1C(=O)OC)N(C)C | = | 5.11 |
| CC(C)C[C@H](NC(=O)[C@H](CC(C)C)NC(=O)[C@@H]1CCCN1C)C(=O)N[C@@H](C)/C=C/C(=O)N[C@@H](C)C(=O)NCc1ccccc1 | = | 5.22 |
| COC1=CC(=O)N(C(=O)/C=C/[C@H](C)NC(=O)[C@H](CC(C)C)NC(=O)[C@H](CC(C)C)NC(=O)[C@H](C(C)C)N(C)C)[C@H]1Cc1ccc(O)cc1 | = | 8.28 |
| CC(C)C[C@H](NC(=O)[C@H](CC(C)C)NC(=O)[C@@H](C(C)C)N(C)C)C(=O)N[C@@H](C)/C=C/C(=O)N[C@@H](C)C(=O)NCc1ccccc1 | = | 5.47 |
| CC[C@H](C)[C@@H](C(=O)N[C@@H](CC(C)C)C(=O)N[C@@H](CC(C)C)C(=O)N[C@H](C(=O)N[C@@H](C)/C=C/C(=O)N[C@@H](C)C(=O)N1C[C@@H](O)C[C@H]1C(=O)OC)C(C)C)N(C)C | < | 4.30 |

----------
Entries and their pIC50 values follow.
test system: Falcipain 2 (Plasmodium falciparum, UniProt Q9N6S8)
Sequence (Q9N6S8 whole entry): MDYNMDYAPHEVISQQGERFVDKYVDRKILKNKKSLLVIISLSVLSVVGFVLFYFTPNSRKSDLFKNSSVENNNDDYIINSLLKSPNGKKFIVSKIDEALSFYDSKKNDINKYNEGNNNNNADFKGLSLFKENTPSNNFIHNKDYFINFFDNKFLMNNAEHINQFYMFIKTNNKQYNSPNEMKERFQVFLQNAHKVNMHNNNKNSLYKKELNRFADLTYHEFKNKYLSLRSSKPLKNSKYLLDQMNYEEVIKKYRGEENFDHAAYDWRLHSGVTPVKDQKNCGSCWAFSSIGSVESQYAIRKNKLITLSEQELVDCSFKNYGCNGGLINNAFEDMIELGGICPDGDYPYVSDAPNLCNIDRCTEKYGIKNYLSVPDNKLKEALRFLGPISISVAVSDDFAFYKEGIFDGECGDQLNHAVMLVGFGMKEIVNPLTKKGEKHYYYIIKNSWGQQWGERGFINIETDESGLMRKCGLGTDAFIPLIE
experiment: Inhibition of Plasmodium falciparum FP2 using Z-Phe-Arg-AMC as substrate incubated for 30 mins prior to substrate addition measured after 30 mins by fluorescence assay
pIC50: −log10 of the molar value.

| given smiles | test system | pIC50 |
| --- | --- | --- |
| COC1=CC(=O)N(C(=O)/C=C/[C@H](C)NC(=O)[C@H](CC(C)C)NC(=O)[C@H](CC(C)C)NC(=O)[C@H](C(C)C)N(C)C)[C@H]1Cc1c[nH]c2ccccc12 | Falcipain 2 (Plasmodium falciparum, UniProt Q9N6S8) | 7.92 |
| COC1=CC(=O)N(C(=O)CC[C@H](C)NC(=O)[C@H](CC(C)C)NC(=O)[C@H](CC(C)C)NC(=O)[C@H](C(C)C)N(C)C)[C@H]1C | Falcipain 2 (Plasmodium falciparum, UniProt Q9N6S8) | 5.43 |
| COC1=CC(=O)N(C(=O)/C=C/[C@H](C)NC(=O)[C@H](CC(C)C)NC(=O)[C@H](CC(C)C)NC(=O)[C@H](C(C)C)N(C)C)C1 | Falcipain 2 (Plasmodium falciparum, UniProt Q9N6S8) | 7.61 |
| CC(C)C[C@H](NC(=O)[C@H](CC(C)C)NC(=O)[C@H](C(C)C)N(C)C)C(=O)N[C@@H](C)/C=C/C(=O)N[C@@H](C)C(=O)NCc1ccccc1 | Falcipain 2 (Plasmodium falciparum, UniProt Q9N6S8) | 4.94 |
| CO[C@H]1CC(=O)N(C(=O)/C=C/[C@H](C)NC(=O)[C@H](CC(C)C)NC(=O)[C@H](CC(C)C)NC(=O)[C@H](C(C)C)N(C)C)[C@H]1C | Falcipain 2 (Plasmodium falciparum, UniProt Q9N6S8) | 8.55 |
| CC(C)C[C@H](NC(=O)[C@H](CC(C)C)NC(=O)[C@H](C(C)C)N(C)C)C(=O)N[C@@H](C)/C=C/C(=O)N1C(=O)C=C(OCc2ccccc2)[C@@H]1C(C)C | Falcipain 2 (Plasmodium falciparum, UniProt Q9N6S8) | 8.16 |
